target: T1, human CD3e/d (human, UniProt P07766 23-126; P04234 22-105); assay: SPR (Carterra LSA), mAb on chip
T1 construct: Bought soluble protein; also called hCD3e/d; human CD3/ed (Sino CT038-H2508H)
T1 sequence (P07766 23-126, chain 1 of 2): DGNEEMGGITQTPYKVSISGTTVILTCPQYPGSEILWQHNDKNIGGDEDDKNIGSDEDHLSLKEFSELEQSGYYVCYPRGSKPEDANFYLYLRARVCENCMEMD
T1 sequence (P04234 22-105, chain 2 of 2): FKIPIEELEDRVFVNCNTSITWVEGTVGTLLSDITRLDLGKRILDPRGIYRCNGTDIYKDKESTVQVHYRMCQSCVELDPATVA
readout kind: Kd (µM)
API: value field is a number in µM; no unit string.

Quick note, Kd for mAb 285 (antibody, V domains shown, VH and VL only) VH: EVQLLESGGGLGQPGGSLRLSCAASGFTFSNYAMSWVRQAPGKGLEWVSVISGSGGDKNYADSVKGRFTISRDNSKNTLYLQMNSLRAEDTAVYYCAKKYSYYYYYMDVWGKGTTVTVSS VL: SYELTQPLSVSVALGQTARITCGGNNIGSKDVHWYQQKPGQAPVLVIYRDSNRPSGIPERFSGSNSGNTATLTISSAQAGDEADYYCQVWDSRTAVFGGGTQLTAL landed at 0.15

Kindly consider the entry below.
Quick note, Kd for mAb 259 (antibody, V domains shown, VH and VL only) VH: EVLLLESGGGLVQPGGSLRLSCAASGFTFRSSSMTWVRQAPGKGLEWVSGIRGSGGRTYDAESVKGRFTISRDISKNTLYLQMNSVRAEDTAEYYCAKLYDYYNDYMDVWGKGTTVTVSS VL: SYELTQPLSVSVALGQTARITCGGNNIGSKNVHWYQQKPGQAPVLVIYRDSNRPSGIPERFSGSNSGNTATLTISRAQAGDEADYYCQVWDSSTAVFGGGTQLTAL landed at 0.063
